# System: Glucocorticoid receptor (Homo sapiens)
# Test details: GR-GFP Redistribution (AID 450); note: potency is the fitted concentration of half-maximal effect
# Protocol conditions: U2OS GR-GFP nuclear translocation, laser cytometry, 2 h
Calls of active or inactive are those of the source.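 Rule for the calls: active = compounds whose dose series gives a full or clear partial fitted curve of increased nuclear translocation; inconclusive = weak partial curve or effect only at the top dose; inactive = no dose-dependent translocation response.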
Your response should consist of one outcome taken from t for active, f for inactive

See these solved cases before continuing.
# Compound, Label value
records = [
    ("NCCSc1nc(-c2ccccc2)c(-c2ccccc2)o1", "f"),
    ("O=C(O)c1[nH]c2c([N+](=O)[O-])cc([N+](=O)[O-])cc2c1C(=O)O", "f"),
    ("C=C(C)COc1ccc2c(c1)CCC1C2CC[C@]2(C)C(=O)/C(=N/O)CC12 (some centres not stated)", "f"),
    ("Clc1ccccc1NN(Cc1ccccn1)c1ccccc1Cl", "f"),
    ("N#CNC(N)=Nc1ccc(Cl)cc1", "f"),
    ("COc1cccc2c1[C@H](CO)N1[C@H](C#N)[C@@H]3C[C@H](C(=O)O)[C@@H]([C@@H]1C2)N3C", "f"),
    ("O=C(O)C(Cl)(c1ccccc1)c1ccccc1", "f"),
    ("O=c1c(-c2ccccc2)nc2cnc(Oc3ccccc3)nc2n1C1CC1", "f"),
]

-- ask For this compound, state the assay outcome: O=C(C[N+]1(c2ccccc2)CCOCC1)c1ccccc1
-- reply f

-- ask For this compound, state the assay outcome: CC(C)(C)COS(=O)OCC(C)(C)C
-- reply f

-- ask For this compound, state the assay outcome: CC(C)(CO)N1CCN(C(=S)Nc2ccccc2)CC1
-- reply f

-- ask For this compound, state the assay outcome: COc1cccc(Nc2ncc3nc(-c4ccccc4)c(=O)n(C4CC4)c3n2)c1
-- reply f

-- ask For this compound, state the assay outcome: Oc1cccc2ccc(SSc3ccc4cccc(O)c4n3)nc12
-- reply f

-- ask For this compound, state the assay outcome: C[C@]1(c2ccccc2)O[C@@H]2C[C@@H]3[C@@H]4CCC5=CC(=O)C=C[C@@]5(C)[C@]4(F)[C@H](O)C[C@]3(C)[C@@]2(C(=O)CO)O1
-- reply t

-- ask For this compound, state the assay outcome: N/N=C1/c2ccccc2N[C@H]1OC(=O)Nc1cccc(Cl)c1
-- reply f

-- ask For this compound, state the assay outcome: OCCSCc1cc(Cl)cc(Cl)c1O
-- reply f

-- ask For this compound, state the assay outcome: O=C(O)c1ccccc1C1c2ccccc2Oc2ccccc21
-- reply f

-- ask For this compound, state the assay outcome: Cc1ccc(C2=C(Cl)C(=O)C(c3ccc(C)cc3)=C(Cl)C2=O)cc1
-- reply f

-- ask For this compound, state the assay outcome: C[C@H](CCC(=O)O)[C@H]1CC[C@@H]2[C@H]3CC[C@H]4C[C@H](O)CC[C@@]4(C)[C@@H]3CC[C@@]21C
-- reply f

-- ask For this compound, state the assay outcome: CC(CC(=O)O)(CC(=O)O)C(=O)O
-- reply f

-- ask For this compound, state the assay outcome: O=C1c2cc([N+](=O)[O-])ccc2-c2ccc3c4ccc5c6c(ccc(c7ccc1c2c73)c64)C(=O)c1cc([N+](=O)[O-])ccc1-5
-- reply f

-- ask For this compound, state the assay outcome: CSCC[C@@H](C(=O)O)N(C)C
-- reply f

====

# Test details: Cellular Toxicity (caspase-3) Renal Proximal Tubule (AID 667);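 note: cells exposed to compound for 16 hours at 37 °C before detection; 0% = DMSO basal and 100% = 10 µM staurosporine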
# Protocol conditions: renal proximal tubule cells, primary cells freshly taken from rat; caspase-3 activation; series mostly up to 91.7 µM
Calls of active or inactive are those of the source. The call rests on the fitted dose curve; in most records, active means well fitted activation curve with a large enough effect; inconclusive means small, poorly fitted or top-dose-only effect, or effect the other way; inactive means flat fitted curve, though single readings scatter.
Attribute measured: outcome

Known results for compounds:
# Compound string, Result value
data = [
    ("CCCCCCCCOc1ccc(C(=O)O)cc1", "inactive"),
    ("C=C(C#N)C(=O)OCC", "inactive"),
    ("Cc1c2ccccc2c(C)c2c1ccc1ccccc12", "inactive"),
    ("COc1ccc([N+](=O)[O-])cc1N", "inactive"),
    ("CCOc1ccc2nc(N)sc2c1", "inactive"),
]

outcome reading for CCCCCCN : inactive

outcome reading for CCN(CC)c1ccc2c(C)cc(=O)oc2c1 : inactive

outcome reading for CCCCCCc1ccc(-c2ccc(C#N)cc2)cc1 : inactive

====

# Test details: Cell Viability - BJ (AID 421);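 note: potency is the fitted concentration of half-maximal effect; cells exposed to compound for 40 hours at 37 °C before readout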
# Protocol conditions: BJ fibroblast viability, qHTS
Inconclusive results are not listed. Active and inactive are the calls of the source. Calls come from the whole dose curve.
Your response should consist of one outcome taken from active, inactive

-- ask For this molecule, state the assay outcome: Cc1cc2nc(N)sc2cc1C
-- reply inactive

-- ask For this molecule, state the assay outcome: O=C(O)/C=C/c1ccc(/C=C/C(=O)O)cc1
-- reply inactive

-- ask For this molecule, state the assay outcome: O=C(O)c1ccc([N+](=O)[O-])cc1
-- reply inactive

-- ask For this molecule, state the assay outcome: c1ccncc1
-- reply inactive

-- ask For this molecule, state the assay outcome: CN(C)c1ccc(Cc2ccc(N(C)C)cc2)cc1
-- reply inactive

====

# Tested on: N140
# Test details: qHTS profiling for inhibitors of Plasmodium falciparum proliferation (AID 504749); note: nearly all actives have a fitted effect of over 60% in size
# Protocol conditions: P. falciparum in erythrocytes, SYBR Green DNA, 72 h; series mostly up to 28.7 µM
Records with an inconclusive call do not appear. Active and inactive are the calls of the source. Calls follow the shape of the dose curve; as a rule, active = well fitted inhibition curve with a large enough effect; inconclusive = small, poorly fitted or top-dose-only effect; inactive = flat fitted curve, though single readings scatter.
Your response should consist of one outcome taken from class 1 for active, class 0 for inactive

See these solved cases before continuing.
# Molecule, System, Label value
rows = [
    ("CC(=O)N1CCN(c2ccc(OC[C@@H]3CO[C@@](Cn4ccnc4)(c4ccc(Cl)cc4Cl)O3)cc2)CC1", "N140", "class 0"),
    ("O=C(O)[C@@H](S)[C@H](S)C(=O)O", "N140", "class 1"),
    ("C[N+]1(C)[C@@H]2CC(OC(=O)[C@@H](CO)c3ccccc3)C[C@@H]1[C@H]1O[C@H]12 (stereo partly drawn)", "N140", "class 0"),
    ("CC1(C)S[C@@H]2[C@H](NC(=O)Cc3ccccc3)C(=O)N2[C@@H]1C(=O)O", "N140", "class 0"),
    ("N[C@@H](Cc1ccccc1)C(=O)O", "N140", "class 0"),
    ("Cc1cn([C@H]2C[C@H](N=[N+]=[N-])[C@H](CO)O2)c(=O)[nH]c1=O", "N140", "class 0"),
    ("Cc1c(C(=O)O)c(O)cc2c1C(=O)c1c(O)c([C@H]3O[C@H](CO)[C@@H](O)[C@H](O)[C@H]3O)c(O)c(O)c1C2=O", "N140", "class 0"),
]

Now take the following molecule into account.
-- ask For this molecule, state the assay outcome: CC(C)(C)NC[C@@H](O)c1ccc(O)c(CO)n1
-- reply class 0

====

# System: Glucocorticoid receptor (Homo sapiens) (UniProt P04150)
# Sequence (P04150 whole entry, looked up): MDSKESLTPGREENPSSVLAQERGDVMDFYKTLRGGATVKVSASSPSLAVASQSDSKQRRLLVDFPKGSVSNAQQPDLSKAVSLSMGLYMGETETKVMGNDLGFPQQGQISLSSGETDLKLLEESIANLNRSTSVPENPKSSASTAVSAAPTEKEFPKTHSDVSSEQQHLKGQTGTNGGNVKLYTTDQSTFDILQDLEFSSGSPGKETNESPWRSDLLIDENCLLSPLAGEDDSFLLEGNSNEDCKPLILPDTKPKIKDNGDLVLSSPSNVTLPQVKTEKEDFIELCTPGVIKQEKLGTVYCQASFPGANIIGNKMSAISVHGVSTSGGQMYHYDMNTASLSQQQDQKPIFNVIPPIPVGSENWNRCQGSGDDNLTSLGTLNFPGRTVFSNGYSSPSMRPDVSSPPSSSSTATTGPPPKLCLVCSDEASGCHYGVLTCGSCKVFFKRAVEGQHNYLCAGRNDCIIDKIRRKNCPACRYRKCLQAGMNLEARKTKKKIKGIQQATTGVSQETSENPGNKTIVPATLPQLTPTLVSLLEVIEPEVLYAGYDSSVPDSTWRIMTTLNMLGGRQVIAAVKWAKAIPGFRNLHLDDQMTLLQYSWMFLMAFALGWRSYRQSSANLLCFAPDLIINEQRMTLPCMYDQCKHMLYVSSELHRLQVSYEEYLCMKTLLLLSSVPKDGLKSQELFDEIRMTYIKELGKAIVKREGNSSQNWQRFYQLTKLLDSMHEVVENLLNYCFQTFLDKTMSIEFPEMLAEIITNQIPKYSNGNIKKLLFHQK
# Test details: GR-EFC Redistribution (AID 451); note: potency is the fitted concentration of half-maximal effect
# Protocol conditions: CHO-K1 GR-EFC translocation, beta-gal luminescence, 2 h
# Protocol: NIH Molecular Libraries Screening Centers Network [MLSCN] NIH Chemical Genomics Center [NCGC] The glucocorticoid receptor (GR) is a cytoplasmic receptor that belongs to the nuclear receptor family of ligand-dependent transcription factors. […] GR-translocation was measured beta-gal enzyme activity using the PathHunter Detection Kit containing cell membrane permeablizing reagent and beta-gal substrate (DiscoveRx, Fremont, CA). […] Read plate in luminescence mode in ViewLux plate reader (PerkinElmer) […]
The source made the active and inactive calls. The call rests on the fitted dose curve.
Attribute measured: Potency

# Compound string, Result value
measured = [
    ("Clc1ccc(CSC2=NCCN2)cc1Cl", "> 9.22 µM (inactive)"),
    ("C[C@@]12C(=O)OC(=O)[C@@]1(C)[C@H]1CC[C@@H]2O1", "> 46 µM (inactive)"),
    ("Cn1c(=O)c(CCc2ccccc2)nc2cnc(N3CCNCC3)nc21", "> 46 µM (inactive)"),
    ("c1ccc(CSc2nnc3c4ccccc4c4ccccc4c3n2)cc1", "> 9.22 µM (inactive)"),
    ("Nc1nc(N)c(N=Nc2ccc(C(=O)O)c(O)c2)c(N)n1", "> 9.22 µM (inactive)"),
]

Potency reading for CC1=NNC(=S)NCCCN2CCN(CCCNC(=S)NN=C(C)C=NNC(=S)NCCCN3CCN(CCCNC(=S)NN=C1)CC3)CC2 : > 9.22 µM (inactive)

Potency reading for O=C(O)c1nnsc1-c1ccc(-c2snnc2C(=O)O)cc1 : > 9.22 µM (inactive)

====

In this section we review reported activity change, negative = inhibition values for a set of compounds.
# System: Cytochrome P450 1A2 (Homo sapiens) (UniProt P05177)
# Sequence (P05177 whole entry, looked up): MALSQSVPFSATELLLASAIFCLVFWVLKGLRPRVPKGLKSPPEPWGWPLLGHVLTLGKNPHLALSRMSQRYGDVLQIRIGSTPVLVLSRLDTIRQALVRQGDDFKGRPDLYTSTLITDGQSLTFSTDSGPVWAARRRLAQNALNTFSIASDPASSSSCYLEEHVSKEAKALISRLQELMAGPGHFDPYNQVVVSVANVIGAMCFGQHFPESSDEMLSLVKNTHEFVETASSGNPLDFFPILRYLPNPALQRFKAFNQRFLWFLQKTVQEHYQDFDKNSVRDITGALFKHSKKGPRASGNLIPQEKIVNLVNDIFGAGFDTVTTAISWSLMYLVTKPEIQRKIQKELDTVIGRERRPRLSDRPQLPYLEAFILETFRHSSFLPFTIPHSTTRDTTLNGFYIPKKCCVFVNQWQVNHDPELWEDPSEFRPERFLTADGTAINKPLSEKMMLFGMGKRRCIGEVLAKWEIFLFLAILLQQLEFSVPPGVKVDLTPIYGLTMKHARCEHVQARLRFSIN
# Test details: p450-cyp1a2 (AID 410);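 note: -100% = full effect of reference inhibitor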
# Protocol conditions: recombinant CYP1A2, luciferin-ME demethylation, luminescence; series mostly up to 11.4 µM
Records with an inconclusive call do not appear. Calls of active or inactive are those of the source. Calls follow the shape of the full dose curve.

Known results for compounds:
# Compound string, activity change, negative = inhibition
measured = [
    ("CC(CCC(=O)O)(c1cc(Br)c(O)c(Br)c1)c1cc(Br)c(O)c(Br)c1", "-17.9% [at 2.29 µM] (inactive)"),
    ("Nc1nc(-c2cc(-c3cccc4ccccc34)nc(N)n2)cc(-c2cccc3ccccc23)n1", "-4.4% [at 2.29 µM] (inactive)"),
    ("Nc1nc2c(c(=O)[nH]1)CN(c1ccc(S(N)(=O)=O)cc1)CN2", "8.8% [at 2.29 µM] (inactive)"),
    ("O=C(O)[C@@H]1[C@@H](C(=O)NCc2cccnc2)[C@@H]2C=C[C@@H]1O2", "-0.4% [at 2.29 µM] (inactive)"),
    ("CN(C)CCSCCO", "-14.3% [at 2.29 µM] (inactive)"),
]

activity change, negative = inhibition reading for O=C(O)[C@@H]1Cc2c([nH]c3ccccc23)[C@@H](CCCCO)N1 : -9.6% [at 2.29 µM] (inactive)

activity change, negative = inhibition reading for O=[N+]([O-])c1ccc([C@@H](Nc2ccccc2)c2ccc3cccnc3c2O)cc1 : -21.3% [at 2.29 µM] (inactive)

activity change, negative = inhibition reading for CCCCC[C@@H](O)[C@@H]1C(=O)O[C@@H](C)[C@@H](O)\C=C/C=C\C=C/C=C\C=C(\C)[C@H](O)C[C@H](O)C[C@H](O)C[C@H](O)C[C@H](O)C[C@H](O)C[C@@H]1O : 3.3% [at 2.29 µM] (inactive)

activity change, negative = inhibition reading for CN1CCN(c2nc3c(c(=O)n(C)c(=O)n3C)n2C)CC1 : -16.8% [at 2.29 µM] (inactive)
